- Tested on: COLO 205
- METHOD: NCI tumour cell line growth inhibition, 48 h
Calls of active or inactive are those of the source. No stated cut-off is given here; in the data, active = GI50 up to about 1.1 µM and inactive = higher.
Possible outcomes: 1 (yes) (active), 0 (no) (inactive)

COMPOUND	ASSIGNED LABEL
Cn1c2ccccc2c2cc(N3CCCC3)c3c(c21)C(=O)N(c1ccccc1)C3=O	0 (no)
CC1(C2(C)OC(=O)c3ccccc32)OC(=O)c2ccccc21 (stereo not given)	0 (no)
Cc1c2cc[n+](C)cc2c(C)c2c1[nH]c1ccc(O)c(OCC(F)(F)F)c12	0 (no)
CC(C)c1ccc(O)c(Cc2cc(C(C)C)cc(Cc3cc(C(C)C)ccc3O)c2O)c1	0 (no)
CC[C@@]1(O)C(=O)OCc2c1cc1n(c2=O)Cc2cc3ccccc3nc2-1	1 (yes)
O=C(CC1(O)C(=O)Nc2c(Cl)ccc(Cl)c21)c1ccco1 (stereo not given)	0 (no)
C(=C\c1c2oc(-c3ccccc3)cc(-c3ccccc3)c-2c2ccccc12)/C=C1\c2ccccc2-c2c(-c3ccccc3)cc(-c3ccccc3)[o+]c21.[O-][Cl+3]([O-])([O-])[O-]	0 (no)
CCOC(=O)c1sc2nc(-c3ccccc3)nn2c1CBr	0 (no)
CCOC(=O)C12CCCC1(O)N(NC(N)=O)C(C)=C2C(=O)OC (stereo not given)	0 (no)
CC1=C2CN(C(=O)OCC(C)C)CCC2C2=C(C(=O)c3ccccc3C2=O)C1C (stereo not given)	0 (no)
C[N+](C)(C)CCc1ccccc1	0 (no)
CC(C)(C)OC(=O)NCCCC(=O)NC1(c2cc3ccccc3s2)CCCCC1	0 (no)
Cc1cc2c(cc1C)[n+]([O-])c(C(=O)CC(=O)C(=O)Nc1ccccc1C(C)C)c(C)[n+]2[O-]	0 (no)
Cc1cc(=O)c2c([nH]1)NS(=O)(=O)NC2=O	0 (no)
Nc1ccc2nc(Nc3ccc(F)cc3)cnc2c1	0 (no)
COC(=O)C1(C#N)C(C)(C)N=C(c2ccccc2)C12CCCCC2 (stereo not given)	0 (no)
O=C(c1ccc(Cl)cc1)N(C(=S)N1CCN(c2ccccc2)CC1)C1CCCCC1	0 (no)
CC(C)C(OC(=O)c1ccc(NCC2=CC(=O)C=CC2=O)cc1)C(C)C	0 (no)
Cc1ccc([S+](c2ccccc2)c2cc(C)ccc2C)cc1.O=C(OC(C(=O)[O-])C(OC(=O)c1ccccc1)C(=O)O)c1ccccc1 (stereo not given)	0 (no)
CC1C(=O)N=C2C(=CN(Cc3ccccc3)c3ccccc32)C(=O)N1C (stereo not given)	0 (no)

###

- System: Malme-3M
- METHOD: NCI tumour cell line growth inhibition, 48 h
Active and inactive are the calls of the source. Cut-off read from the data, not from the text of the source: active = GI50 up to about 1.1 µM and inactive = higher.
Possible outcomes: active, inactive

                                   molecule  assigned_label
0  CCCCCCCCC/C=C1\CCC(CN2CCOCC2)C1=O (stereo not given)        inactive
1  CC(C)C(OC(=O)c1ccc(NCC2=CC(=O)C=CC2=O)cc1)C(C)C        inactive
2  CN(CCN1C(=O)c2cc([N+](=O)[O-])cc3cc([N+](=O)[O-])cc(c23)C1=O)CCN1C(=O)c2cc([N+](=O)[O-])cc3cc([N+](=O)[O-])cc(c23)C1=O          active
3       Cc1cc(=O)oc2c1cc1ccc3cccc4ccc2c1c34        inactive
4  O=C(c1ccc(Cl)cc1)N(C(=S)OCCOc1ccccc1)c1ccccc1        inactive
5  C[C@H]1S[C@@H](c2ccc(Cl)cc2Cl)N(NC(=O)c2ccncc2)C1=O        inactive
6  Cc1ccc(S(=O)(=O)c2ccc(C)cc2[N+](=O)[O-])cc1        inactive
7              COC(=O)c1ccc(C=C(C#N)C#N)cc1        inactive
8          CCOC(=O)C#Cc1ccc(C#CC(=O)OCC)cc1        inactive
9  Cc1cc2c(c(/C=N/c3ccc(N(C)C)cc3)c1)OC1(C=C2)Oc2ccccc2C(=O)N1C (stereo not given)        inactive
